Exercise: state measured TGI for each of the molecules provided.
- Test system: HL-60(TB) leukemia
- run.description: NCI tumour cell line growth inhibition, 48 h

Given item O=C(NC(Cc1ccc(I)cc1)C(=O)O)c1ccc(Cl)cc1 (stereo not given) , the value recorded as its TGI is > 100 µM

Looking up CCOC(=O)CC(NCc1ccc(N=Cc2nc3ccc(C(F)(F)F)cc3nc2-c2ccccc2)cc1)C(=O)OCC (stereo not given) , I found its TGI recorded as > 100 µM

In plain terms, CC1CC(Br)C(=O)O1 (stereo not given) has a documented TGI of > 100 µM

Record COC1=CC2CCN3Cc4cc5c(cc4C(C1O)C23)OCC5 (stereo not given) . Reported TGI: > 25.7 µM

Summary for this molecule, CSc1nc(Br)nc2ncn(C3CC(Oc4ccc(C)cc4)C(COc4ccc(C)cc4)O3)c12 (stereo not given) : TGI is > 100 µM
